Test system: SR leukemia
Assay: NCI tumour cell line growth inhibition, 48 h
observation type: TGI (µM)

smi=O=C(O)c1ccc(Nc2nc3ccc(C(F)(F)F)cc3nc2-c2ccccc2)cc1 observation_type=TGI measurement_units=µM comparison_symbol=> data_value=100
smi=O=c1[nH]nc(-c2ccccc2)n1-n1cccc1 observation_type=TGI measurement_units=µM comparison_symbol== data_value=97
smi=Nc1nc(N)c(CCCCc2ccccc2)c(/C=C/c2ccc([N+](=O)[O-])cc2)n1 observation_type=TGI measurement_units=µM comparison_symbol== data_value=4.85
smi=C#Cc1cccc(Nc2ncnc3ccc(-c4cnc(N)nc4)cc23)c1 observation_type=TGI measurement_units=µM comparison_symbol=> data_value=100
smi=CCOC(=O)CN1C(=O)c2c(NC(=O)C(=O)O)cccc2S1(=O)=O observation_type=TGI measurement_units=µM comparison_symbol=> data_value=100
smi=Cc1ccc(/C=C2\CCS(=O)(=O)c3ccccc3C2=O)cc1 observation_type=TGI measurement_units=µM comparison_symbol== data_value=63.7

* * *

# TGI values compiled below
Test system: NCI-H460 lung
Experiment: NCI tumour cell line growth inhibition, 48 h
observation type: TGI

compound=O=C(CO)CC(=O)C(=O)Nc1cccc(C(F)(F)F)c1 observation_type=TGI data_value="> 100 µM"
compound=CC(C)c1ccc(C(O)(C(=O)O)c2ccc(C(C)C)cc2)cc1 observation_type=TGI data_value="> 100 µM"
compound=O=[N+]([O-])c1cc(C(F)(F)F)cc2c1SC1=Nc3ccccc3CN12 observation_type=TGI data_value="> 100 µM"
compound="COc1ccccc1/C=C1\\CCC(CN2CCOCC2)C1=O (stereo unspecified)" observation_type=TGI data_value="36 µM"
compound=Cn1cc(-c2csc(-c3cn(CCCN4CCCCC4)c4ccc(Br)cc34)n2)c2cccnc21 observation_type=TGI data_value="3.4 µM"
compound=O=C(O)c1ccccc1/C=N\N(CCO)C1=NCCN1 observation_type=TGI data_value="> 100 µM"
compound=CCc1cc2c(Nc3ccccc3)c3c(nc2s1)CCCC3 observation_type=TGI data_value="> 100 µM"
compound=CCOC(=O)c1c(Br)c(-c2ccc([N+](=O)[O-])cc2)c(Br)n1C observation_type=TGI data_value="> 10 µM"
compound="COC(=O)N1C2C(C[C@@]1(C)C(=O)OC)c1ccccc1N2S(=O)(=O)c1ccccc1 (stereo partly specified)" observation_type=TGI data_value="> 100 µM"
compound="CCCCCC1CC=CC(NC(=O)OCc2ccccc2)C1/C=C/CCCC1OCCO1 (stereo unspecified)" observation_type=TGI data_value="> 100 µM"
compound=O=C1NC(NNc2ccccc2)=N/C1=C\c1ccco1 observation_type=TGI data_value="55 µM"

* * *

Tested on: OVCAR-8 ovarian
Experiment: NCI tumour cell line growth inhibition, 48 h
# TGI values compiled below
observation type: TGI

compound=Cn1c2ccccc2c(=NNc2ccc(S(=O)(=O)N=C(N)N)cc2)c2ccccc21 data_value="26.4 µM"
compound=CCCCNP1(NCCCC)=NP(NCCCC)(NCCCC)=NP(NCCCC)(NCCCC)=NP(NCCCC)(NCCCC)=N1 data_value="17.4 µM"
compound="CC[C@H](C)[C@H](NC(=O)[C@H]1CCCCN1C)C(=O)N(C)[C@H](C[C@@H](OC(C)=O)c1nc(C(=O)NC23C4C5C2C2C3C4C52C(=O)OC)cs1)C(C)C (stereo partly drawn)" data_value="> 25 µM"
compound=O=C(O)c1ccccc1/C=N\N(CCO)C1=NCCN1 data_value="> 100 µM"
compound=CSc1nc(SC)c2c(C)c(Br)[nH]c2n1 data_value="> 100 µM"
compound=COc1ccc(C(=O)/C=C/c2c(C(F)(F)F)nc3ccccn23)cc1OC data_value="> 25.1 µM"
compound=CC1(C)C2=CCCC(=O)[C@@]2(C)CC[C@@H]1O data_value="> 100 µM"
compound=CN1CCN(C(=O)[C@@]2(C)CC[C@]3(C)CC[C@]4(C)C(=CC[C@@H]5[C@@]6(C)CC[C@H](OC(=O)c7cccnc7)C(C)(C)[C@@H]6CC[C@]54C)[C@@H]3C2)CC1 data_value="4.3 µM"
